tested on: Key Broadleaf Weed and Crop Species; experiment: Post-Emergent Test II: postemergent herbicidal activity, visual rating after 14 d (Table 7); format: in vivo; conditions: post-emergence, 336 h, redroot pigweed (Amaranthus retroflexus), 35 g ai/ha, read-out: Visual Growth Reduction (%) 14 Days After Application AMARE
property-name: pest or weed control at 35 g/ha

molecule	test-target	property-name	observed
COC(=O)c1nc(-c2ccc3c(c2)OC(F)(F)O3)c(F)c(N)c1OC [Compound 24]	Key Broadleaf Weed and Crop Species	pest or weed control at 35 g/ha	0 to 29%

List pest or weed control at 35 g/ha for every entry below, keeping the order given.
1. C=Cc1c(C(=O)O)nc(-c2cc3c(cc2F)OC(F)(F)O3)c(F)c1N [Compound 28]
2. COC(=O)c1nc(-c2ccc(F)c3c2OC(F)(F)O3)c(F)c(N)c1Cl [Compound 76]
3. Nc1c(F)c(-c2ccc(I)c3c2OC(F)(F)O3)nc(C(=O)O)c1Cl [Compound 81]

result:
["0 to 29%", "95 to 100%", "95 to 100%"]

query: Entry Nc1c(F)c(-c2cccc3c2OCO3)nc(C(=O)O)c1Cl [Compound 72] has what pest or weed control at 35 g/ha?
result: 95 to 100%

---

test system: Key Grass and Sedge Weeds as well as Grass Crops; assay: Post-Emergent Test II: postemergent herbicidal activity, visual rating after 14 d (Table 8); assay type: in vivo; conditions: post-emergence, 336 h, maize, corn (Zea mays), 140 g ai/ha, read-out: Visual Growth Reduction (%) 14 Days After Application ZEAMX
Give measured pest or weed control at 140 g/ha for each item. Keep answers brief.

smi	property-name	observed
Nc1c(F)c(-c2cc3c(cc2F)OC(F)(F)O3)nc(C(=O)O)c1Cl	pest or weed control at 140 g/ha	75 to 84%
COC(=O)c1nc(-c2ccc3c(c2)OC(F)(F)O3)nc(N)c1OC	pest or weed control at 140 g/ha	95 to 100%
COC(=O)c1nc(-c2cc3c(cc2F)OC(F)(F)O3)c(F)c(N)c1F	pest or weed control at 140 g/ha	45 to 59%
COC(=O)c1nc(-c2cc3c(cc2F)OC(F)(F)O3)c(F)c(N)c1OC	pest or weed control at 140 g/ha	75 to 84%

query: So what does the record say about pest or weed control at 140 g/ha for `Nc1nc(-c2cc3c(cc2F)OC(F)(F)O3)nc(C(=O)O)c1Cl` ?
result: 45 to 59%

---

tested on: Key Broadleaf Weed and Crop Species; assay: Post-Emergent Test II: postemergent herbicidal activity, visual rating after 14 d (Table 7); type: in vivo; settings: post-emergence, 336 h, BRSNN: oilseed rape, canola (Brassica napus), 35 g ai/ha, read-out: Visual Growth Reduction (%) 14 Days After Application BRSNN
Please go through the items and note down their pest or weed control at 35 g/ha.

smi	property-name	observed
COC(=O)c1nc(-c2ccc(Cl)c3c2OC(F)(F)O3)c(C)c(N)c1Cl	pest or weed control at 35 g/ha	0 to 29%

I need pest or weed control at 35 g/ha for every entry listed below, if you could help.
1. COc1c(N)nc(-c2ccc(Cl)c3c2OC(F)(F)O3)nc1C(=O)O
2. COC(=O)c1nc(-c2ccc3c(c2F)OC(F)(F)C3(F)F)cc(N)c1Cl
3. COC(=O)c1nc(-c2ccc(F)c3c2OCO3)nc(N)c1OC
4. Nc1cc(-c2ccc(Cl)c3c2OC(F)(F)O3)nc(C(=O)O)c1Cl
5. Nc1cc(-c2c(F)ccc3c2OC(F)(F)O3)nc(C(=O)O)c1Cl
6. COC(=O)c1nc(-c2ccc(Cl)c3c2OC(F)(F)O3)cc(N)c1Cl
7. COC(=O)c1nc(-c2cccc3c2OC(F)(F)O3)cc(N)c1Cl

result:
0 to 29%
0 to 29%
0 to 29%
60 to 74%
0 to 29%
75 to 84%
60 to 74%

query: Would you kindly share the measured pest or weed control at 35 g/ha for `COC(=O)c1nc(-c2ccc3c(c2)COC3)c(F)c(N)c1Cl` ?
result: 0 to 29%

---

system: Key Broadleaf Weed and Crop Species; assay: Post-Emergent Test II: postemergent herbicidal activity, visual rating after 14 d (Table 7); type: in vivo; settings: post-emergence, 336 h, wild poinsettia (Euphorbia heterophylla), 35 g ai/ha, read-out: Visual Growth Reduction (%) 14 Days After Application EPHHL
Exercise: state measured pest or weed control at 35 g/ha for each of the molecules provided.

Known results for molecules:
smi	pest or weed control at 35 g/ha
Nc1nc(-c2cc3c(cc2F)OC(F)(F)O3)nc(C(=O)O)c1Cl	0 to 29%
Nc1c(Cl)c(C(=O)O)nc(-c2ccc3c(c2F)OC(F)(F)O3)c1Cl	0 to 29%
Nc1nc(-c2ccc3c(c2F)OC(F)(F)O3)nc(C(=O)O)c1Cl	95 to 100%

// next entry
query: Give recorded pest or weed control at 35 g/ha with Key Broadleaf Weed and Crop Species for the following molecule: `Nc1c(F)c(-c2ccc(I)c3c2OC(F)(F)O3)nc(C(=O)O)c1Cl`
result: 0 to 29%

---

tested on: Wheat and Barley and weed species; assay: Post-Emergent Test III: postemergent herbicidal activity in wheat and barley, visual rating after 21 d and probit GR20/GR50/GR80/GR90 (Tables 9-13); type: in vivo; details: VERPE bird's-eye speedwell (veronica persica); growth reduction of 80%; probit analysis
property-name: GR80 VERPE

Some molecules with recorded GR80 VERPE:
smi	observed
COC(=O)c1nc(-c2ccc(Br)c3c2OC(F)(F)O3)c(F)c(N)c1Cl	77 g ai/ha
Nc1c(F)c(-c2ccc(Cl)c3c2OC(F)(F)O3)nc(C(=O)O)c1Cl	>140 g ai/ha
Nc1c(F)c(-c2cc3c(cc2F)OC(F)(F)O3)nc(C(=O)O)c1Cl	16 g ai/ha

Next molecule, please.
query: Consider the molecule `Nc1c(F)c(-c2ccc3c(c2F)OC(F)(F)O3)nc(C(=O)O)c1Cl` and give its measured GR80 VERPE.
result: 41 g ai/ha

---

tested on: Key Broadleaf Weed and Crop Species; assay: Post-Emergent Test II: postemergent herbicidal activity, visual rating after 14 d (Table 7); type: in vivo; conditions: post-emergence, 336 h, lambsquarters (Chenopodium album), 140 g ai/ha, read-out: Visual Growth Reduction (%) 14 Days After Application CHEAL
property-name: pest or weed control at 140 g/ha

Before answering, review these 6 worked examples.
molecule	observed
COC(=O)c1nc(-c2cc3c(cc2OC)OC(F)(F)O3)cc(N)c1Cl [Compound 38]	0 to 29%
Nc1nc(-c2cc3c(cc2F)OC(F)(F)O3)nc(C(=O)O)c1Cl [Compound 57]	0 to 29%
COC(=O)c1nc(-c2cc(F)c3c(c2)OC(F)(F)O3)c(F)c(N)c1Cl [Compound 17]	0 to 29%
COC(=O)c1nc(-c2cc3c(cc2F)OCO3)nc(N)c1OC [Compound 69]	0 to 29%
Nc1c(F)c(-c2cccc3c2OCO3)nc(C(=O)O)c1Cl [Compound 72]	95 to 100%
COc1c(N)nc(-c2cc3c(cc2F)OC(F)(F)O3)nc1C(=O)O [Compound 68]	0 to 29%

Respectfully, I request pest or weed control at 140 g/ha for each entry included below.
1. Nc1c(F)c(-c2cc3c(cc2F)OC(F)(F)O3)nc(C(=O)O)c1Cl [Compound 13]
2. C=Cc1c(C(=O)O)nc(-c2cc3c(cc2F)OC(F)(F)O3)c(F)c1N [Compound 28]
3. Cc1c(-c2cc(N)c(Cl)c(C(=O)O)n2)ccc2c1OC(F)(F)O2 [Compound 36]

result:
["85 to 94%", "0 to 29%", "45 to 59%"]

---

system: Key Grass and Sedge Weeds as well as Grass Crops; assay: Post-Emergent Test II: postemergent herbicidal activity, visual rating after 14 d (Table 8); assay type: in vivo; details: post-emergence, 336 h, yellow nutsedge (Cyperus esculentus), 70 g ai/ha, read-out: Visual Growth Reduction (%) 14 Days After Application CYPES
For each record, write down the corresponding pest or weed control at 70 g/ha.

Take a look at these entries with their results.
compound	property-name	observed
COC(=O)c1nc(-c2ccc3c(c2)OC(C)(C)O3)c(F)c(N)c1Cl [Compound 8]	pest or weed control at 70 g/ha	95 to 100%
Cc1c(-c2ccc3c(c2)OC(F)(F)O3)nc(C(=O)O)c(Cl)c1N [Compound 52]	pest or weed control at 70 g/ha	0 to 29%
Nc1nc(-c2cc3c(cc2F)OC(F)(F)O3)nc(C(=O)O)c1Cl [Compound 57]	pest or weed control at 70 g/ha	0 to 29%
Nc1c(F)c(-c2ccc(F)c3c2OC(F)(F)O3)nc(C(=O)O)c1Cl [Compound 77]	pest or weed control at 70 g/ha	0 to 29%

Let us move to another entry and its pest or weed control at 70 g/ha.
query: Value lookup for pest or weed control at 70 g/ha; key = COC(=O)c1nc(-c2ccc(Cl)c3c2OC(F)(F)O3)c(Cl)c(N)c1Cl [Compound 70]
result: 0 to 29%
